Target: PSMA-expressing C4-2 cells (Homo sapiens, UniProt Q04609)
Construct: PSMA-expressing C4-2 cells (ATCC, Cat. No. CRL-3314) were cultured in RPMI-1640; host or cells: C4-2 cells
Sequence (Q04609 whole entry): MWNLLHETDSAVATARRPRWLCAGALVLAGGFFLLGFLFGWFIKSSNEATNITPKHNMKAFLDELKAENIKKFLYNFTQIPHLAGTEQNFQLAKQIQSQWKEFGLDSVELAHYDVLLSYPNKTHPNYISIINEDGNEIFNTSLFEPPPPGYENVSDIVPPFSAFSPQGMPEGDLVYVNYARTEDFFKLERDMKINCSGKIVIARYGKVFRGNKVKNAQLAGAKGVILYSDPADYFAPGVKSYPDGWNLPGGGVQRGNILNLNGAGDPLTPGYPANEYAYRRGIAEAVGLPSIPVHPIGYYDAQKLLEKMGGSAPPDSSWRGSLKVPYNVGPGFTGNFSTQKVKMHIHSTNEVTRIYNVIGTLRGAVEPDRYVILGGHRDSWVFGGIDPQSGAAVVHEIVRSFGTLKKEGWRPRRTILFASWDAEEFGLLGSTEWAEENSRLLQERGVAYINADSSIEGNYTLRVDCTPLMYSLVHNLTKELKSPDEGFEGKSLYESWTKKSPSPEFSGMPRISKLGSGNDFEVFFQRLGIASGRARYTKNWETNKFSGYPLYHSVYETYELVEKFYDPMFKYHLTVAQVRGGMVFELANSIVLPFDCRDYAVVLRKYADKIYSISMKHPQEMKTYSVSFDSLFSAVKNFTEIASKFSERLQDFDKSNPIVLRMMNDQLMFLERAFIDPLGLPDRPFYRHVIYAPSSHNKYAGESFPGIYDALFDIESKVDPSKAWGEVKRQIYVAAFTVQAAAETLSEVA
Assay: FACS binding assay (competition with 50 nM PSM-0183)
Conditions: pIC50 category of FACS binding, C4-2 cells; read-out: pIC50 [C4-2] CAT (converted)
Numbered stars: 1 amine (or outer) side, 2 acyl side, 3 side chain; on linkers, the order of the positions; unused ones are H or OH. Bridge positions count the residues as written; N and C are the ends. Square brackets hold non-standard residues; d marks the D form. Peptide text beside a SMILES is read from it. * marks the point of attachment. DOTA = O=C(O)CN1CCN(CC(=O)O)CCN(CC(=O)*)CCN(CC(=O)O)CC1; Phe(3-CN) = N#Cc1cccc(C[C@H](N)C(=O)O)c1; Phe(4-Cl) = N[C@@H](Cc1ccc(Cl)cc1)C(=O)O; d(αMeD) = C[C@@](N)(CC(=O)O)C(=O)O; X1 = O=C(CC1CCN([*:1])CC1)[*:2]; Tle = CC(C)(C)[C@H](N)C(=O)O; Nle = CCCC[C@H](N)C(=O)O; Aib = CC(C)(N)C(=O)O
Measure Name: IC50

*Q* What does the record list as IC50 for C[C@@H](O)[C@H](NC(=O)[C@@H](NC(=O)[C@@H]1CSSC[C@H](NC(=O)[C@H](Cc2ccc(Cl)cc2)NC(=O)C(C)(C)NC(=O)[C@@H](NC(=O)CC2CCN(C(=O)CN3CCN(CC(=O)O)CCN(CC(=O)O)CCN(CC(=O)O)CC3)CC2)[C@@H](C)O)C(=O)N[C@@H](CCCCN)C(=O)N[C@@H](CCCNC(=N)N)C(=O)N[C@@H](CCC(=O)O)C(=O)N[C@@H](CC(N)=O)C(=O)N1)C(C)(C)C)C(N)=O [PSM-0416] ({DOTA}-[X1]T[Aib][Phe(4-Cl)]CKRENC[Tle]T-NH2; disulfide 5-10) ?
*A* < 200 nM

*Q* What does the record list as IC50 for CC(=O)N[C@H](C(=O)NC(C)(C)C(=O)N[C@@H](Cc1ccccc1)C(=O)N[C@H]1CSSC[C@@H](C(=O)N[C@H](C(=O)N[C@H](C(N)=O)[C@@H](C)O)C(C)(C)C)NC(=O)[C@H](CC(C)C)NC(=O)C(C)(C)NC(=O)[C@H](CCCNC(=N)N)NC(=O)[C@H](CCCCN)NC1=O)[C@@H](C)O [PSM-0545] (Ac-T[Aib]FCKR[Aib]LC[Tle]T-NH2; disulfide 4-9) ?
*A* < 200 nM

*Q* What does the record list as IC50 for CCCC[C@H](NC(=O)[C@@H]1CSSC[C@H](NC(=O)[C@H](Cc2ccccc2)NC(=O)[C@@H]2CCCN2C(=O)[C@@H](NC(C)=O)[C@@H](C)O)C(=O)N[C@@H](CCCCN)C(=O)N[C@@H](CCCNC(=N)N)C(=O)N[C@@H](C)C(=O)N[C@@H](CC(N)=O)C(=O)N1)C(=O)N[C@H](C(=O)N[C@@H](CC(=O)O)C(N)=O)[C@@H](C)O [PSM-0547] (Ac-TPFCKRANC[Nle]TD-NH2; disulfide 4-9) ?
*A* < 200 nM

*Q* What does the record list as IC50 for C[C@@H](O)[C@H](NC(=O)[C@@H](NC(=O)[C@@H]1CSSC[C@H](NC(=O)[C@H](Cc2ccc(Cl)cc2)NC(=O)[C@@](C)(CC(=O)O)NC(=O)[C@@H](NC(=O)CC2CCN(C(=O)CN3CCN(CC(=O)O)CCN(CC(=O)O)CCN(CC(=O)O)CC3)CC2)[C@@H](C)O)C(=O)N[C@@H](CCCCN)C(=O)N[C@@H](CCCNC(=N)N)C(=O)NC(C)(C)C(=O)N[C@@H](CC(N)=O)C(=O)N1)C(C)(C)C)C(N)=O [PSM-0366] ({DOTA}-[X1]T[d(αMeD)][Phe(4-Cl)]CKR[Aib]NC[Tle]T-NH2; disulfide 5-10) ?
*A* 200 to 1260 nM

*Q* What does the record list as IC50 for CC(=O)N[C@H](C(=O)NC(C)(C)C(=O)N[C@@H](Cc1cccc(C#N)c1)C(=O)N[C@H]1CSSC[C@@H](C(=O)N[C@H](C(=O)N[C@H](C(N)=O)[C@@H](C)O)C(C)(C)C)NC(=O)[C@H](CC(N)=O)NC(=O)C(C)(C)NC(=O)[C@H](CCCNC(=N)N)NC(=O)[C@H](CCCCN)NC1=O)[C@@H](C)O [PSM-0555] (Ac-T[Aib][Phe(3-CN)]CKR[Aib]NC[Tle]T-NH2; disulfide 4-9) ?
*A* < 200 nM

---

Molecular target: PSMA-expressing C4-2 cells (Homo sapiens, UniProt Q04609)
Construct: PSMA-expressing C4-2 cells (ATCC, Cat. No. CRL-3314) were cultured in RPMI-1640; host or cells: C4-2 cells
Assay: FACS binding assay (competition with 50 nM PSM-0183)
Conditions: pIC50 category of FACS binding, C4-2 cells; read-out: pIC50 [C4-2] CAT (converted)
Numbered stars: 1 amine (or outer) side, 2 acyl side, 3 side chain; on linkers, the order of the positions; unused ones are H or OH. Bridge positions count the residues as written; N and C are the ends. Square brackets hold non-standard residues; d marks the D form. Peptide text beside a SMILES is read from it. * marks the point of attachment. DOTA = O=C(O)CN1CCN(CC(=O)O)CCN(CC(=O)*)CCN(CC(=O)O)CC1; Trp(6-Cl) = N[C@@H](Cc1c[nH]c2cc(Cl)ccc12)C(=O)O; Phe(4-Cl) = N[C@@H](Cc1ccc(Cl)cc1)C(=O)O; Arg(Me) = CNC(=N)NCCC[C@H](N)C(=O)O; X1 = O=C(CC1CCN([*:1])CC1)[*:2]; Cit = NC(=O)NCCC[C@H](N)C(=O)O; Lys(Me) = CNCCCC[C@H](N)C(=O)O; Tle = CC(C)(C)[C@H](N)C(=O)O; Aib = CC(C)(N)C(=O)O; CO = O=C([*:1])[*:2]; NHBu = CCCCN*
Measure Name: IC50

*Q* What does the record list as IC50 for CC(=O)N[C@H](C(=O)NC(C)(C)C(=O)N[C@@H](Cc1ccccc1)C(=O)N[C@H]1CSSC[C@@H](C(=O)N[C@H](C(=O)N[C@H](C(=O)N[C@@H](CC(=O)O)C(N)=O)[C@@H](C)O)C(C)(C)C)NC(=O)[C@H](CC(N)=O)NC(=O)[C@H](C)NC(=O)[C@H](CCCNC(=N)N)NC(=O)[C@@H](CCCCN)NC1=O)[C@@H](C)O [PSM-0535] (Ac-T[Aib]FC[dK]RANC[Tle]TD-NH2; disulfide 4-9) ?
*A* 0.2 to 1.26 µM

*Q* What does the record list as IC50 for CC(=O)N[C@H](C(=O)NC(C)(C)C(=O)N[C@@H](Cc1ccc(Cl)cc1)C(=O)N[C@H]1CSSC[C@@H](C(=O)N[C@H](C(=O)N[C@H](C(=O)N2CCC(CC(=O)N[C@H](CCCCNC(=O)CN3CCN(CC(=O)O)CCN(CC(=O)O)CCN(CC(=O)O)CC3)C(N)=O)CC2)[C@@H](C)O)C(C)(C)C)NC(=O)[C@H](CC(N)=O)NC(=O)C(C)(C)NC(=O)[C@H](CCCNC(=N)N)NC(=O)[C@H](CCCCN)NC1=O)[C@@H](C)O [PSM-0482] (Ac-T[Aib][Phe(4-Cl)]CKR[Aib]NC[Tle]T[X1][dK](DOTA)-NH2; disulfide 4-9) ?
*A* < 0.2 µM

*Q* What does the record list as IC50 for CCCCNC(=O)N[C@H](C(=O)NC(C)(C)C(=O)N[C@@H](Cc1ccccc1)C(=O)N[C@H]1CSSC[C@@H](C(=O)N[C@H](C(=O)N[C@H](C(=O)N2CCC(CC(=O)N[C@H](CCCCNC(=O)CN3CCN(CC(=O)O)CCN(CC(=O)O)CCN(CC(=O)O)CC3)C(N)=O)CC2)[C@@H](C)O)C(C)(C)C)NC(=O)[C@H](CC(N)=O)NC(=O)C(C)(C)NC(=O)[C@H](CCCNC(N)=O)NC(=O)[C@H](CCCCN)NC1=O)[C@@H](C)O [PSM-0434] ({NHBu-CO}-T[Aib]FCK[Cit][Aib]NC[Tle]T[X1][dK](DOTA)-NH2; disulfide 4-9) ?
*A* 0.2 to 1.26 µM

*Q* What does the record list as IC50 for CNCCCC[C@@H]1NC(=O)[C@@H](NC(=O)[C@H](Cc2c[nH]c3cc(Cl)ccc23)NC(=O)C(C)(C)NC(=O)[C@@H](NC(=O)CC2CCN(C(=O)CN3CCN(CC(=O)O)CCN(CC(=O)O)CCN(CC(=O)O)CC3)CC2)[C@@H](C)O)CSSC[C@@H](C(=O)N[C@H](C(N)=O)C(C)(C)C)NC(=O)[C@H](CC(N)=O)NC(=O)C(C)(C)NC(=O)[C@H](CCCNC(=N)NC)NC1=O [PSM-0390] ({DOTA}-[X1]T[Aib][Trp(6-Cl)]C[Lys(Me)][Arg(Me)][Aib]NC[Tle]-NH2; disulfide 5-10) ?
*A* < 0.2 µM
